Hello, the source for this data is PubChem BioAssay (NCI), in case you need it.

Tested on: UACC-257 melanoma
Test: NCI-60 one-dose screen, 48 h (100 = growth as untreated, 0 = no growth, -100 = all killed)
Conditions: 10 µM unless noted
About 83,000 compounds went through this panel and 20% of them were active in at least one assay; those are over-represented in the sample as a whole.
quantity_name: growth (%)
Write it as a number; the unit % goes unstated.

**Query** Fill in reported growth for this entry: Cc1ccc2c(n1)C(=O)C(Cl)=C(Nc1ccc(C#N)cc1)C2=O
**Result** 74.8

More entries:
**Query** Return growth (reported value) for this compound: Nc1ccc(Nc2ncnc3sc4c(c23)CCN(Cc2ccccc2)C4)cc1
**Result** 106

**Query** # return recorded growth for entry C1=CC(c2nn3c(-c4ccccc4)nnc3s2)=Cc2ccccc2O1
**Result** 67.8

**Query** Kindly indicate its recorded growth. Item: Clc1ccc2[nH]cc(-c3cncn3CCc3ccc4c(c3)OCO4)c2c1
**Result** 57.5

**Query** Give the reported value of growth for this record: Cc1ccc(-c2csc(N/N=C/c3cccs3)n2)cc1
**Result** 97.1

**Query** Name the recorded growth of the compound listed here: Fc1cccc(Cl)c1/C=N/Nc1nc(N/N=C/c2c(F)cccc2Cl)nc(N2CCCCC2)n1
**Result** 11.7
